assay: qHTS assay to identify small molecule agonists of the estrogen related receptor signaling pathway with the pleiotropic PPARgamma coactivator (PGC) from Tox21 10K library (AID 1224842); details: PGC/ERR reporter cell line, luciferase ONE-Glo, 18 h; series mostly up to 92.4 µM; note: nearly all actives have a fitted effect of over 15% in size
Records with an inconclusive call do not appear. Activity calls are given as the source filed them. Calls come from the whole dose curve; as a rule, active = well fitted activation curve with a large enough effect in the repeat runs; inconclusive = weak or mixed curves, or effect the other way; inactive = no such curve, though single readings can be large or run the other way.
Possible outcomes: True for active, False for inactive

| Molecule | Cat |
| --- | --- |
| CCC(C)CO (stereo not drawn) | False |
| CC(C)CC(C)(O)C#CC(C)(O)CC(C)C (stereo not drawn) | False |
| COc1ccc(OC)c(C(O)CNC(=O)CN)c1 (stereo not drawn) | False |
| CCOCCOCCO | False |
| O=C(Nc1ccc(Cl)cc1)Nc1ccc(Cl)c(Cl)c1 | False |
| Nc1ncnc2nc[nH]c12 | True |
| C/C=C/C(=O)O | False |
| S=C(NC1CCCCC1)NC1CCCCC1 | False |

---

molecular target: Thyrotropin receptor (Homo sapiens); test: qHTS assay to identify small molecule agonists of the thyroid stimulating hormone receptor (TSHR) signaling pathway (AID 1224843); conditions: TSHR-HEK293 cells, cAMP HTRF, agonist mode, 30 min; series mostly up to 92.4 µM; note: nearly all actives have a fitted effect of over 45% in size
Results filed as inconclusive are left out. The source made the active and inactive calls. Calls follow the shape of the full dose curve.

| Compound Smiles | outcome |
| --- | --- |
| COc1cccc2c1C(=O)c1c(O)c3c(c(O)c1C2=O)C[C@@](O)(C(=O)CO)C[C@@H]3O[C@H]1C[C@H](N)[C@H](O)[C@H](C)O1 | inactive |
| c1ccc2sc(SSN3CCOCC3)nc2c1 | inactive |
| CCCCOCCOCCO | inactive |

---

assay: qHTS assay for identifying genotoxic compounds that show differential cytotoxicity against isogenic chicken DT40 cell lines with known DNA damage response pathways - wild type cell line (AID 743012); settings: DT40 wild type chicken cells viability, CellTiter-Glo, 40 h; series mostly up to 68.4 µM; note: nearly all actives have a fitted effect of over 60% in size
Records with an inconclusive call do not appear. Calls of active or inactive are those of the source. Calls follow the shape of the dose curve; as a rule, active = well fitted cell-killing curve with a large enough effect in the repeat runs; inconclusive = weak or mixed curves, or effect the other way; inactive = no such curve, though single readings can be large or run the other way.
Possible outcomes: 1 (yes) for active, 0 (no) for inactive

| Molecule | Cat |
| --- | --- |
| Cc1ccc(C)c(O)c1C | 0 (no) |
| Cc1c(C(N)=O)cc([N+](=O)[O-])cc1[N+](=O)[O-] | 0 (no) |
| CCOCCOCCO | 0 (no) |
| c1cc(-c2ccncc2)ccn1 | 0 (no) |
| CCC(C)CO (stereo not drawn) | 0 (no) |
| CN1C(C(=O)Nc2ccccn2)=C(O)c2ccccc2S1(=O)=O | 0 (no) |
| CCCCNS(=O)(=O)c1ccccc1 | 0 (no) |
| CC(=O)CC/C=C(\C)CCC=C(C)C | 0 (no) |
| C[C@]12CC[C@H]3[C@@H](CCC4=CC(=O)CC[C@@]43C)[C@@H]1CC[C@@H]2C(=O)CO | 1 (yes) |
| CCCC(=O)O | 0 (no) |
| C=C(C)C1CC=C(C)CC1 (stereo not drawn) | 0 (no) |
| CC(=O)Oc1ccccc1C(=O)Nc1ncc([N+](=O)[O-])s1 | 1 (yes) |
| CCCCC(CC)COC(=O)c1ccc(N(C)C)cc1 (stereo not drawn) | 0 (no) |

---

experiment: qHTS RealTime-Glo MT Cell Viability Assay in HepG2 cells - 0 hour (AID 1224889); settings: RealTime-Glo luminescence; series mostly up to 76.8 µM; note: nearly all actives have a fitted effect of over 50% in size
Records with an inconclusive call do not appear. The source made the active and inactive calls. Calls come from the whole dose curve; as a rule, active = well fitted cell-killing curve with a large enough effect in the repeat runs; inconclusive = weak or mixed curves, or effect the other way; inactive = flat fitted curve, though single readings scatter.
Possible outcomes: yes for active, no for inactive

| Molecule | Cat |
| --- | --- |
| COC(C)COC(C)COC(C)CO (stereo not given) | no |
| O=C(O)c1ccccc1Nc1cccc(C(F)(F)F)c1 | no |
| Nc1ncn([C@@H]2O[C@H](CO)[C@@H](O)[C@H]2O)c(=O)n1 | no |
| c1ccc(Nc2ccccc2)cc1 | no |
| COC(=O)CCC(=O)OC | no |
| Nc1ccc(Cl)cc1Cl | no |
| OC(CCl)CCl | no |
| COc1cccc2c1C(=O)c1c(O)c3c(c(O)c1C2=O)C[C@@](O)(C(=O)CO)C[C@@H]3O[C@H]1C[C@H](N)[C@H](O)[C@H](C)O1 | no |
| COC(=O)Nc1nc2ccc(S(=O)c3ccccc3)cc2[nH]1 (stereo not given) | no |
| O=c1oc(=O)c2cc3c(=O)oc(=O)c3cc12 | no |
| Nc1ccc(Nc2ccccc2)cc1 | no |
| OC1CCCCCCCCCCC1 | no |
| Nc1ccccc1N | no |
| C=C(C)C(=O)OCCOC(=O)C(=C)C | no |
| CCCCOCCOCCO | no |
| O=P(O)(O)O | no |
| COc1ccccc1/C=C/C=O | no |
| Cc1cc2nc3c(=O)[nH]c(=O)nc-3n(C[C@H](O)[C@H](O)[C@H](O)CO)c2cc1C | no |
| COC(=O)c1ccccc1 | no |
| CCCCC(CC)COCC1CO1 (stereo not given) | no |
| Cc1c(C(N)=O)cc([N+](=O)[O-])cc1[N+](=O)[O-] | no |
| CN(C)c1nc(N(C)C)nc(N(C)C)n1 | no |
| COc1cc([C@@H]2c3cc4c(cc3[C@H](O)[C@H]3COC(=O)[C@H]23)OCO4)cc(OC)c1OC | no |
| O=C(OCc1ccccc1)c1ccccc1O | no |
| C[Si](C)(C)O[Si](C)(C)C | no |
| c1ccc2cc(Nc3ccc(Nc4ccc5ccccc5c4)cc3)ccc2c1 | no |
| CCC(C)(O)CCCC(C)C (stereo not given) | no |
| CCCCC/C=C/C=C/C=O | no |
| CC(C)Oc1ccc2c(=O)c(-c3ccccc3)coc2c1 | no |
| O=Cc1ccccc1O | no |
| CCCCCCCCCCCO | no |
| CCC(C)CO (stereo not given) | no |
| CCC(C)OC(=O)c1ccc(O)cc1 (stereo not given) | no |
| O=C=Nc1ccc(Cc2ccc(N=C=O)cc2)cc1 | no |
| Cc1ncc[nH]1 | no |
| NNc1ccc(C(=O)O)cc1 | no |
| CN(C)C(=N)N=C(N)N | no |
| OCCO | no |
| Clc1nc(Cl)c(Cl)c(Cl)c1Cl | no |
| O=C(/C=C/C=C/c1ccc2c(c1)OCO2)N1CCCCC1 | no |
| O=C1OC2(c3cc(Br)c(O)c(Br)c3Oc3c2cc(Br)c(O)c3Br)c2c(Cl)c(Cl)c(Cl)c(Cl)c21 | yes |
| Cc1[nH]c(=O)c(C#N)cc1-c1ccncc1 | no |
| S=C(NC1CCCCC1)NC1CCCCC1 | no |
| CCC(C)c1ccccc1O (stereo not given) | no |
| CN1C(C(=O)Nc2ccccn2)=C(O)c2ccccc2S1(=O)=O | no |
| O=C(COc1ccc(Cl)cc1)N1CCN(Cc2ccc3c(c2)OCO3)CC1 | no |
| Cc1c(OCC(F)(F)F)ccnc1CS(=O)c1nc2ccccc2[nH]1 (stereo not given) | no |
| O=C(Nc1ccc(Cl)cc1)Nc1ccc(Cl)c(Cl)c1 | no |
| O=[N+]([O-])c1ccc2c(c1)Cc1ccccc1-2 | no |
| C=C(C)C1CC=C(C)CC1 (stereo not given) | no |
| O=C(c1ccc(OCCN2CCCCC2)cc1)c1c(-c2ccc(O)cc2)sc2cc(O)ccc12 | no |
| CC1=CC2C3CC(C=C3C)C2C1 (stereo not given) | no |
| CCCCC(CC)COP(=O)(OCC(CC)CCCC)OCC(CC)CCCC (stereo not given) | no |
| CC(C)=CCCC(C)CCO (stereo not given) | no |
| Cc1cccc([N+](=O)[O-])c1C | no |

---

assay: Caspase-3/7 induction in CHO-K1 cells by small molecules, qHTS cell viability counter screen (AID 1346979); details: CellTiter-Fluor fluorescence, 17 h; series mostly up to 92.4 µM; note: nearly all actives have a fitted effect of over 35% in size
Inconclusive results are not listed. Activity calls are given as the source filed them. The call rests on the fitted dose curve; in most records, active means well fitted cell-killing curve with a large enough effect in the repeat runs; inconclusive means weak or mixed curves, or effect the other way; inactive means no such curve, though single readings can be large or run the other way.
Possible outcomes: YES = active, NO = inactive

| Compound | Cat |
| --- | --- |
| CCCCC(CC)COC(=O)c1ccc(N(C)C)cc1 (stereo unspecified) | NO |
| OCCO | NO |
| CCC(C)CO (stereo unspecified) | NO |
| OC1CCCCCCCCCCC1 | NO |
| CN(C)CCC=C1c2ccccc2CCc2ccccc21 | YES |
| CCOC(=O)C(C#N)=C(c1ccccc1)c1ccccc1 | NO |
| Cc1c(C(N)=O)cc([N+](=O)[O-])cc1[N+](=O)[O-] | NO |
| CCCCOCCOCCOCCO | NO |
| CC(C)OC=O | NO |
| Cc1ccc(C)c(O)c1C | NO |
| O=c1oc(=O)c2cc3c(=O)oc(=O)c3cc12 | NO |
| C/C=C/C(=O)O | NO |
| c1ccc2c(c1)Oc1ccccc1S2 | NO |
| CCCCC(CC)COCC1CO1 (stereo unspecified) | NO |
| NC=O | NO |
| O=P(O)(O)O | NO |
